# credit: the OPERA property sets (Mansouri et al. 2018)

hey, just use YES if measured logP is less than 3, otherwise NO

### Prompt Here's an entry: CCOc1ccc(NC(=O)OC(C)COC)cc1OCC (stereo unspecified) . Is its logP below 3?
### Response YES

### Prompt Here's an entry: `c1ccc(CC2CC3=NOS4=C3C(=NO4)C2)cc1` . Is its logP below 3?
### Response YES

### Prompt Here's an entry: `COC(=O)c1ccc(-n2sc3ccccc3c2=O)cc1` . Is its logP below 3?
### Response NO

### Prompt Here's an entry: `CCOc1ccc(NC(=O)OCCCl)cc1OCC` . Is its logP below 3?
### Response YES

### Prompt Here's an entry: C=CCN(N=O)C(=O)N(CCCCC(NC(C)=O)C(=O)Nc1ccccc1)Cc1ccccc1 (stereo unspecified) . Is its logP below 3?
### Response YES

### Prompt Here's an entry: `CCCNC(=O)COC(=O)Cc1ccc2cc(OC)ccc2c1` . Is its logP below 3?
### Response NO

### Prompt Here's an entry: `Cc1cc2cc3c(C)cc(=O)oc3c(C)c2o1` . Is its logP below 3?
### Response NO

### Prompt Here's an entry: `CCOC(=O)Cc1ccc(-n2sc3ccccc3c2=O)cc1` . Is its logP below 3?
### Response NO

### Prompt Here's an entry: CCCN(CCCCC(NC(C)=O)C(=O)NCc1ccccc1)C(=O)N(C)N=O (stereo unspecified) . Is its logP below 3?
### Response YES

### Prompt Here's an entry: `Cc1ccccc1S(=O)(=O)N1C(=O)NC(=O)C1(c1ccccc1)c1ccccc1` . Is its logP below 3?
### Response NO

### Prompt Here's an entry: `COc1ccc(-c2nnc(NC(=O)c3c(OC)cccc3OC)s2)cc1` . Is its logP below 3?
### Response NO

### Prompt Here's an entry: COC1N(C2CC(N=[N+]=[N-])C(CO)O2)C(=O)NC(=O)C1(C)Br (stereo unspecified) . Is its logP below 3?
### Response YES

### Prompt Here's an entry: `CC(=O)Oc1ccc(C(=O)O)cc1` . Is its logP below 3?
### Response YES

### Prompt Here's an entry: CCC(C(=O)OC)c1ccc(-n2sc3ccccc3c2=O)cc1 (stereo unspecified) . Is its logP below 3?
### Response NO

### Prompt Here's an entry: `CCCc1ccc(OC(=O)N(C)C)cc1` . Is its logP below 3?
### Response NO

###

Exercise: for every item that follows, state its recorded logP.

### Prompt Could you tell me which logP is on file for C=CCNC(=O)NCCCC(NC(C)=O)C(=O)NCc1ccccc1 (configuration not stated) ?
### Response 0.68

### Prompt Could you tell me which logP is on file for `Cc1ccc2c(c1)[n+]([O-])nc(N)[n+]2[O-]` ?
### Response 0.2

### Prompt Could you tell me which logP is on file for `C#CCOc1cc(NC=NOCC)cc(F)c1OCC#C` ?
### Response 2.1

### Prompt Could you tell me which logP is on file for CC(=O)NC(CCCNC(=O)N(C)N=O)C(=O)NCc1ccccc1 (configuration not stated) ?
### Response 0.98

### Prompt Could you tell me which logP is on file for CCOC(=O)C(C)Oc1ccc(-n2sc3ccccc3c2=O)cc1 (configuration not stated) ?
### Response 3.89

### Prompt Could you tell me which logP is on file for `C#CCOc1ccc(NC=NOCC)cc1OCC#C` ?
### Response 1.9

### Prompt Could you tell me which logP is on file for CCOc1ccc(NC(=O)OC(C)CF)cc1OCC (configuration not stated) ?
### Response 2.59

### Prompt Could you tell me which logP is on file for CC12CCC(CC1=O)C2(C)C (configuration not stated) ?
### Response 2.38

### Prompt Could you tell me which logP is on file for `CCN(CC)C(=O)COC(=O)Cc1ccc2cc(OC)ccc2c1` ?
### Response 3.05

### Prompt Could you tell me which logP is on file for `CCc1ccc(OC(=O)N(C)C)cc1` ?
### Response 2.55

### Prompt Could you tell me which logP is on file for `C#CCOc1cc(NC=NOC)cc(F)c1OCC#C` ?
### Response 1.8

### Prompt Could you tell me which logP is on file for OC1(Cn2cncn2)CCCC1Cc1ccccc1 (configuration not stated) ?
### Response 2.26

### Prompt Could you tell me which logP is on file for `COc1cccc(OC)c1C(=O)Nc1nnc(-c2ccc(Br)cc2)s1` ?
### Response 3.92

### Prompt Could you tell me which logP is on file for `O=c1[nH]c2ccccc2n1C1CCNCC1` ?
### Response 1.14

### Prompt Could you tell me which logP is on file for C=CCN(N=O)C(=O)NCCCCC(NC(C)=O)C(=O)NCc1ccccc1 (configuration not stated) ?
### Response 1.62

### Prompt Could you tell me which logP is on file for `CN(C)C(=O)Oc1ccc(C#N)cc1` ?
### Response 1.21

### Prompt Could you tell me which logP is on file for `CN(C)C(=O)Oc1cccc(Cl)c1` ?
### Response 2.33

### Prompt Could you tell me which logP is on file for `CCOc1ccc(NC(=O)OCCBr)cc1OCC` ?
### Response 2.78

### Prompt Could you tell me which logP is on file for `COc1ccc2cc(CC(=O)OCC(=O)NC(C)C)ccc2c1` ?
### Response 2.89

### Prompt Could you tell me which logP is on file for `CC(C)=CCN1CC[C@@]2(C)c3cc(O)ccc3C[C@@H]1[C@@H]2C` ?
### Response 4.64

### Prompt Could you tell me which logP is on file for `COc1ccc2cc(CC(=O)OCC(=O)NC(C)(C)C)ccc2c1` ?
### Response 3.6

### Prompt Could you tell me which logP is on file for Cc1ccc(CC2CCCC2(O)Cn2cncn2)cc1 (configuration not stated) ?
### Response 2.71
